System: ALOMY
Assay: Herbicidal post-emergence action 1a (greenhouse pots, visual rating)
Format: in vivo, Alopecurus myosuroides
Settings: Dosage 80 g/ha; rated visually about 3 weeks after treatment; 100% = plants have died, 0% = like control plants
Please provide measured Post-emergence action against ALOMY in % for the entries that follow.
One number for each entry, in %.

# compound, result_number
data = [
    ("COC(=O)[C@@H](C)Oc1nn(-c2cnccn2)c(-c2ccc(F)nc2)c1I", 80),
    ("CCOC(=O)[C@@H](C)Oc1nn(-c2cnccn2)c(-c2cncc(F)c2)c1Cl", 80),
    ("O=C(O)COc1nn(-c2cnccn2)c(-c2ccc(F)nc2)c1C1CC1", 80),
    ("CC(Oc1nn(-c2cnccn2)c(-c2ccc(F)c(F)c2)c1Br)C(=O)O (centres unmarked)", 90),
    ("COC(=O)C(C)Oc1nn(-c2cnccn2)c(-c2ccc(F)c(F)c2)c1C#N (racemic)", 90),
]

Look at each compound and report its Post-emergence action against ALOMY in %.
1. COC(=O)C(C)Oc1nn(-c2cnccn2)c(-c2ccc(F)c(F)c2)c1Br (racemic)
2. COC(=O)[C@@H](C)Oc1nn(-c2cnccn2)c(-c2cncc(F)c2)c1Br
3. COC(=O)[C@@H](C)Oc1nn(-c2cnccn2)c(-c2ccc(F)c(F)c2)c1Br

1: 90; 2: 90; 3: 90
